- Tested on: Plasmodium falciparum
- ASSAY COMMENT: GSK_TCMDC: Inhibition of Plasmodium falciparum Dd2 in whole red blood cells, using parasite LDH activity as an index of growth. Test compounds present at 2uM
- Format: functional
Quick rule: Inhibition of at least 90% means rule met, below that means rule not met.

COMPOUND	ASSIGNED CLASS
CC(Cc1ccc(NC(=O)CCCc2ccccc2)cc1)NCCc1cccc(Cl)c1.Cl (stereo not drawn)	rule not met
CC[C@H]1CN2CC[C@H]1C[C@H]2[C@H](O)c1cc(/C=C/c2ccc(F)cc2)nc2ccc(OC)cc12.Cl	rule met
O=C(c1cc(C(=O)NCc2ccc(Cl)cc2)c(=O)n(Cc2ccc(Cl)cc2)c1)c1cc(F)ccc1O	rule not met
CC(C)CN1CCC(N(C)c2cc(NC(=O)c3cccc(F)c3)ccn2)CC1.O=C(O)C(F)(F)F	rule not met
C=CCOc1ccccc1CNCC(O)c1cccc(C(F)(F)F)c1 (stereo not drawn)	rule met
O=c1c2ccccc2nc(/C=C/c2ccc([N+](=O)[O-])cc2)n1-c1ccccn1	rule met
O=C(/C=C/c1ccc(Cl)c(Cl)c1)NCC1CCCC(CN2CCC(c3c[nH]c4ccccc34)CC2)C1 (stereo not drawn)	rule not met
CC(Cc1ccc(OCCCCOc2ccccc2)cc1)NCCC1CCCN1C (stereo not drawn)	rule met
O=c1n[n+](C2CCCCC2)[n-]o1	rule not met
COC(=O)c1ccc(CC(C)NCC(O)c2cccc(Cl)c2Cl)cc1.Cl (stereo not drawn)	rule met
FC(F)(F)c1ccc(NC(=S)N2CCC(CN3CCC(c4c[nH]c5ccccc45)CC3)CC2)cc1	rule not met
O=C(/C=C/c1ccc(Cl)c(Cl)c1)N1CCC(CN2CCC(c3c[nH]c4cc(C(F)(F)F)ccc34)CC2)CC1	rule not met
CN(C)c1cccc(NC(=O)NC2N=C(c3ccccc3)c3ccccc3N(CC(=O)N(C)c3ccccc3)C2=O)c1 (stereo not drawn)	rule not met
CC[C@H]1CN2CC[C@@H]1C[C@H]2[C@H](O)c1cc(N2CCC(O)(c3ccccc3)CC2)nc2ccc(OC)cc12	rule met
CC(C)CNCc1cccc(-c2cccc(CN(C(=O)NC3CCCCC3)C3CCN(Cc4ccccc4)CC3)c2)c1.O=C(O)C(F)(F)F	rule not met
CN1CCC(N(C)c2nccc(N3CCN(Cc4cncn4Cc4ccccc4)CC3)n2)CC1	rule met
COC(=O)c1ccc(C[C@@H](C)NC[C@H](O)c2cccc(C(F)(F)F)c2)cc1.Cl	rule met

----------
- Tested on: Plasmodium falciparum
- ASSAY COMMENT: GSK_TCMDC: Inhibition of Plasmodium falciparum 3D7 in whole red blood cells, using parasite LDH activity as an index of growth. Test compounds present at 2uM
- Assay type: functional

MOLECULE	TESTED TARGET	UNIT TEXT	Inhibition
CC(Cc1ccc(OCCCCOc2ccccc2)cc1)NCCCc1nc2ccccc2[nH]1 (stereo not drawn)	Plasmodium falciparum	%	97
Oc1ccc(Cl)cc1CN1CCC(CCOC(c2ccccc2)c2ccccc2)CC1	Plasmodium falciparum	%	98
CCN(CC)CCCC(C)Nc1ccnc2cc(Cl)ccc12.O=P(O)(O)O.O=P(O)(O)O (stereo not drawn) [CHLOROQUINE PHOSPHATE]	Plasmodium falciparum	%	100
CC(C)CNCc1cccc(-c2cccc(CN(C(=O)Nc3ccccc3)C3CCN(Cc4ccccc4)CC3)c2)c1.O=C(O)C(F)(F)F	Plasmodium falciparum	%	100
O=C(NC1CCC(CN2CCC(c3c[nH]c4ccccc34)CC2)CC1)c1[nH]c(=O)[nH]c(=O)c1F (stereo not drawn)	Plasmodium falciparum	%	99
COc1ccc(CN2CCN(CCOC(c3ccc(F)cc3)c3ccc(F)cc3)CC2)c(O)c1	Plasmodium falciparum	%	97
CC[C@H]1CN2CC[C@H]1C[C@H]2[C@H](O)c1cc(-c2ccccc2C)nc2ccc(OC)cc12.Cl	Plasmodium falciparum	%	100
O=C(Cc1c(-c2ccccc2)[nH]c2ccccc12)NC1CCC(CN2CCC(c3c[nH]c4ccccc34)CC2)CC1 (stereo not drawn)	Plasmodium falciparum	%	100
Cc1cccc2c(C3CCN(CC4CCC(NC(=O)/C=C/c5ccc(Cl)c(Cl)c5)CC4)CC3)c[nH]c12 (stereo not drawn)	Plasmodium falciparum	%	92
Cc1ccc2c(C3=CCN(CCCCC4(C)C(=O)Nc5c(F)cccc54)CC3)c(C)[nH]c2c1 (stereo not drawn)	Plasmodium falciparum	%	95
CN1CC[C@H](N(Cc2ccccc2F)c2ccc(C#N)c(Cl)c2)C1	Plasmodium falciparum	%	88
CC(C)CNCc1cccc(-c2cccc(CN(C(=O)c3cccs3)C3CCN(Cc4ccccc4)CC3)c2)c1.O=C(O)C(F)(F)F	Plasmodium falciparum	%	90
Br.CCCCCCCSc1ccc(CC(C)NCC(O)c2cccc(Cl)c2)cc1 (stereo not drawn)	Plasmodium falciparum	%	100
O=C(/C=C/c1cc(C(F)(F)F)ccc1F)NC1CCC(CN2CCC(c3c[nH]c4ccccc34)CC2)CC1 (stereo not drawn)	Plasmodium falciparum	%	100
CC[C@H]1CN2CC[C@H]1C[C@H]2[C@H](O)c1cc(-c2cccc(C)c2)nc2ccc(OC)cc12.Cl	Plasmodium falciparum	%	100
Cc1cc(N(C)C2CCN(C)CC2)nc(Nc2ccc(Br)cc2)n1	Plasmodium falciparum	%	100
CCCCCCC(C)(C)c1cc(O)c2c(c1)OC(C)(C)c1ccncc1-2.Cl	Plasmodium falciparum	%	95
O=C(/C=C/c1ccc(Cl)c(Cl)c1)N1CCC(CN2CCC(c3c[nH]c4ccccc34)C(O)C2)CC1 (stereo not drawn)	Plasmodium falciparum	%	99
